We begin with a simple list: items and their reported Vmax.
Target: thyroid peroxidase (TPO) (Sus scrofa, UniProt P09933)
Construct: The frozen thyroid gland was cut into slices and homogenized in a buffer containing 0.25 M sucrose; from tissue; host or cells: porcine thyroid gland (homogenate, centrifuged, salted-out to 60%)
Sequence (P09933 15-926): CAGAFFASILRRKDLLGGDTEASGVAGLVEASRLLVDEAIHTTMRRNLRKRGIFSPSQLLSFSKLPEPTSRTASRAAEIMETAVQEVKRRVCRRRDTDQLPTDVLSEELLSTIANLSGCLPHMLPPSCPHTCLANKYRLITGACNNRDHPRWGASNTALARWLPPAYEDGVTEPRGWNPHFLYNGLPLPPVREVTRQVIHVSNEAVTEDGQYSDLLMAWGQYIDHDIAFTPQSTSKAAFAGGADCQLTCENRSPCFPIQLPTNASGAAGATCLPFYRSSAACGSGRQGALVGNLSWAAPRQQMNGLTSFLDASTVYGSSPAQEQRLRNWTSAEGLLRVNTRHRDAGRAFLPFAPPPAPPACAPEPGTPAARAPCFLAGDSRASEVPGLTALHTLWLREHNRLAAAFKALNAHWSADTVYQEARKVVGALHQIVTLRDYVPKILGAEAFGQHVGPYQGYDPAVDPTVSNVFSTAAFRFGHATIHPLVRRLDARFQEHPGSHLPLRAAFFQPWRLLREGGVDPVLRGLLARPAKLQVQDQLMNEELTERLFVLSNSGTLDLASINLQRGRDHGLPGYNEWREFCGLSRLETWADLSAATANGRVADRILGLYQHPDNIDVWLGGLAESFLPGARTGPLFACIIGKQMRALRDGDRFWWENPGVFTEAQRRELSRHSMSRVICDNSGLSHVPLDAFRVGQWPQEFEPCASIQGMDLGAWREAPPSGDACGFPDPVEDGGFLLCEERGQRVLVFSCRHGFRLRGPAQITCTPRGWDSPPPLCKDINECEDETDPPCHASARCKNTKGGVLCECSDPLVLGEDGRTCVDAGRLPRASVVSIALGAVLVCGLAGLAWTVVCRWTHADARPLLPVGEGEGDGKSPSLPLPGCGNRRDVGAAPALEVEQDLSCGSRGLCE
Assay: TPO inhibitory assay (guaiacol oxidation)
Format: biochemical, porcine
Conditions: TPO in presence of inhibitor, n = 9
Give the number; a ΔAU/min is assumed, so skip it.

>>> assay_result("O=c1c(O)c(-c2ccc(O)c(O)c2)oc2cc(O)cc(O)c12")
149.25

Now, please, on to the next molecule.
Param item = `C[C@@H]1O[C@@H](OC[C@H]2O[C@@H](Oc3c(-c4ccc(O)c(O)c4)oc4cc(O)cc(O)c4c3=O)[C@H](O)[C@@H](O)[C@@H]2O)[C@H](O)[C@H](O)[C@H]1O` ; retrieve measured Vmax.
149.25
